Biological target: DPP-4 (manufactured by Sigma, derived from porcine kidney) (porcine, UniProt P22411 38-766, limits assumed)
Sequence (P22411 38-766 limits assumed): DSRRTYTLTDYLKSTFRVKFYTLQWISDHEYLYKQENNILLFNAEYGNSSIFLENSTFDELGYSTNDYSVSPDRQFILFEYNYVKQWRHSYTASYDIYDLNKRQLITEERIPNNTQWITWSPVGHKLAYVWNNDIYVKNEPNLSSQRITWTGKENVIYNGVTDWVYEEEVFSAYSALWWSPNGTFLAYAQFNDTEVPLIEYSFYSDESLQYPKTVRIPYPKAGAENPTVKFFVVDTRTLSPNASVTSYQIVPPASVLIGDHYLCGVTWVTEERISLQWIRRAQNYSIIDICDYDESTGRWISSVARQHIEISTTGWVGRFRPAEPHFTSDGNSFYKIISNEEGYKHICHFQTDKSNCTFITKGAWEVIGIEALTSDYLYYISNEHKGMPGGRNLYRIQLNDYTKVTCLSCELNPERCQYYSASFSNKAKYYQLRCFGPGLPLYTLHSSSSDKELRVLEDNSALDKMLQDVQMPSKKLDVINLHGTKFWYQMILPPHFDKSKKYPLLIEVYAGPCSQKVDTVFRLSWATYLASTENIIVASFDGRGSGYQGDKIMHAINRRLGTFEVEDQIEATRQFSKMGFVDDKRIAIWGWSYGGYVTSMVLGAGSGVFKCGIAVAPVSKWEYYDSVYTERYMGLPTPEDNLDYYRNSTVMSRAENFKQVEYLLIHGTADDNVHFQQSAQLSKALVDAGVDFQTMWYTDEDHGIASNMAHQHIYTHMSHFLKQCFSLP
Experiment: cell-based or functional assay
Square brackets hold non-standard residues; d marks the D form. Ends that are not written are not given here. Hyp = O=C(O)[C@@H]1C[C@@H](O)CN1
test-readout: IC50 value (µM)

{"columns": ["binder", "test-value"],
 "data": [
  ["GPAGP [Gly-Pro-Ala-Gly-Pro]", 60]
]}

I: GPAGP[Hyp] [Gly-Pro-Ala-Gly-Pro-Hyp]
II: GPIGPV [Gly-Pro-Ile-Gly-Pro-Val]
III: GPQ [Gly-Pro-Gln]
IV: GPLGPV [Gly-Pro-Leu-Gly-Pro-Val]
Let's sort these by IC50 value, smallest first. Go ahead? Arrange the labels as the request states and list them. II, IV, I, III

I: GAIGPS [Gly-Ala-Ile-Gly-Pro-Ser]
II: GPE [Gly-Pro-Glu]
III: GPP [Gly-Pro-Pro]
Let's sort these by IC50 value, smallest first. Go ahead? Arrange the labels as the request states and list them. II, I, III

I: GAVGPA [Gly-Ala-Val-Gly-Pro-Ala]
II: GPAGPR [Gly-Pro-Ala-Gly-Pro-Arg]
III: GA [Gly-Ala]
Let's sort these by IC50 value, smallest first. Go ahead? Arrange the labels as the request states and list them. II, I, III
(II: 80 µM, I: 437 µM, III: 3340 µM)

This collection of values is drawn from patent US9340579B2.
